tested_system: Serine protease 1 (Homo sapiens)
Sequence (P07477 whole entry): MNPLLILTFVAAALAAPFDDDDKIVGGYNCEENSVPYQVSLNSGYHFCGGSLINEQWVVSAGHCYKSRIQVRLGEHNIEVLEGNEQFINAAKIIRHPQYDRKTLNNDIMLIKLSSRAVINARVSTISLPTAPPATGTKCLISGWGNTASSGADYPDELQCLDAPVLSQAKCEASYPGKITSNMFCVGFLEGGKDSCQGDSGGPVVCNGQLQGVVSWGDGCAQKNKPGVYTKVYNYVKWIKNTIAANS
pIC50: −log10 of the molar value.
readout_type: pIC50

Input line: Please give the measured pIC50 for this molecule: "CC(C)C[C@H](C=O)NC(=O)[C@@H](NS(=O)(=O)c1ccc(F)cc1)C(C)C"
Output line: < 4.00

---

tested_system: UniProt:P08684
test: Inhibition of Cytochrome P450 3A4 as BFC substrate
Format: ADME
readout_type: pIC50
The quantity pIC50 is defined as the negative base-10 logarithm of the molar concentration.

Input line: Return pIC50 measured with UniProt:P08684 given this molecule: "CC(C)C[C@H](C=O)NC(=O)[C@@H](NS(=O)(=O)c1ccc(F)cc1)C(C)C"
Output line: 4.09

---

tested_system: Chymotrypsinogen A (Bos taurus)
readout_type: IC50

Input line: Which IC50 value belongs to "CC(C)C[C@H](C=O)NC(=O)[C@@H](NS(=O)(=O)c1ccc(F)cc1)C(C)C" ?
Output line: > 200 µM

---

tested_system: Coagulation factor VII (Homo sapiens)
Sequence (P08709 61-212 limits assumed): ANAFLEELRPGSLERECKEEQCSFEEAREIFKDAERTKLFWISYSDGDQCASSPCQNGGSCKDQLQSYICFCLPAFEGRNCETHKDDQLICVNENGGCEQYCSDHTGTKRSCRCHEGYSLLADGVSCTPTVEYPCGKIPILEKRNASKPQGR
Sequence (P08709 213-466 limits assumed): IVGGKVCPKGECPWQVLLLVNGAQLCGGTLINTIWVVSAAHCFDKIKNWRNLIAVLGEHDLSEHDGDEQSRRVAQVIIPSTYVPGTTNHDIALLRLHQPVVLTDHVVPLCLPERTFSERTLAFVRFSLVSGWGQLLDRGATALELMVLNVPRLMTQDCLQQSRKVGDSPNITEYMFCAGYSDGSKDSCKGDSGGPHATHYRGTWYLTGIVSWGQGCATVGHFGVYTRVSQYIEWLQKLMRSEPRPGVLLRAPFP
test: Inhibitory activity against coagulation factor VII
pIC50: −log10 of the molar value.
readout_type: pIC50

Input line: GET /values?readout=pIC50&item= "CC(C)C[C@H](C=O)NC(=O)[C@@H](NS(=O)(=O)c1ccc(F)cc1)C(C)C"
Output line: < 4.00

---

tested_system: Cytochrome P450 2C19 (Homo sapiens, UniProt P33261)
Sequence (P33261 whole entry): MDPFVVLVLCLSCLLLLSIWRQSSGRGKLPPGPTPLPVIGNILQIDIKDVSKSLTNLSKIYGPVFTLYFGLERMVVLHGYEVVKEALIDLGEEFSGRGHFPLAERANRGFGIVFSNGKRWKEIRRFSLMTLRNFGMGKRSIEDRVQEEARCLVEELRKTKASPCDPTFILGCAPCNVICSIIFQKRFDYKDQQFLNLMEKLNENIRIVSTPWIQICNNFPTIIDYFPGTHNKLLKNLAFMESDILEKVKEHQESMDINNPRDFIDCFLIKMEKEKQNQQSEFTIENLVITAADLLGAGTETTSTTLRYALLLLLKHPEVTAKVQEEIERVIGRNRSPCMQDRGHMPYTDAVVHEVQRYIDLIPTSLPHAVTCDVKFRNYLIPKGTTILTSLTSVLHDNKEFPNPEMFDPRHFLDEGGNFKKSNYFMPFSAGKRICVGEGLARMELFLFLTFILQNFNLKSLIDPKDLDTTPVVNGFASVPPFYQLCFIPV
test: Inhibition of Cytochrome P450 2C19
Type: ADME
readout_type: pIC50
Interpret pIC50 as the negative base-10 log of the concentration measured in mol/L.

Input line: Requested field: pIC50. Item: "CC(C)C[C@H](C=O)NC(=O)[C@@H](NS(=O)(=O)c1ccc(F)cc1)C(C)C"
Output line: 3.75

---

tested_system: Cytochrome P450 3A4 (Homo sapiens)
Sequence (P08684 whole entry): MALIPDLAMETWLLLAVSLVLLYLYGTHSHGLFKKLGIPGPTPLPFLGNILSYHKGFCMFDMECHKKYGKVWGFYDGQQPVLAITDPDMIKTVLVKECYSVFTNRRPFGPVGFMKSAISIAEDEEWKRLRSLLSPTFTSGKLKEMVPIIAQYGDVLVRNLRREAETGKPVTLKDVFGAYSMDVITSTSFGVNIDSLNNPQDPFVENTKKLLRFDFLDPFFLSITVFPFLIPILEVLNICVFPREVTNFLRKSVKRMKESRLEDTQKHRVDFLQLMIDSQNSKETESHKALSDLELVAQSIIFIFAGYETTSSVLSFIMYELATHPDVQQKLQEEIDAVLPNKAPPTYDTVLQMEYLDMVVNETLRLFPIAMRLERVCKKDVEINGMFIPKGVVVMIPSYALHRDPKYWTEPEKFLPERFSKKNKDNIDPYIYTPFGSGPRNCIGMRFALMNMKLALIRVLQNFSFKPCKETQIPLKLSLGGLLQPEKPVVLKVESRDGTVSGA
test: Inhibition of Cytochrome P450 3A4 as BQ substrate
Assay type: ADME
readout_type: pIC50
Scale for pIC50: -log10 of concentration given in mol/L; no unit attached.

Input line: Recorded pIC50 for "CC(C)C[C@H](C=O)NC(=O)[C@@H](NS(=O)(=O)c1ccc(F)cc1)C(C)C" , please?
Output line: 3.27

---

tested_system: Coagulation factor X (Homo sapiens, UniProt P00742)
Sequence (P00742 41-179 limits assumed): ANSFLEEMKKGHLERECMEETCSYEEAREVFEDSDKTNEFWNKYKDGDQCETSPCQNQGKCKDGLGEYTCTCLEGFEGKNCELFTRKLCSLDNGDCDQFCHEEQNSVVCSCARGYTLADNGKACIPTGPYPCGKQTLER
Sequence (P00742 235-488 limits assumed): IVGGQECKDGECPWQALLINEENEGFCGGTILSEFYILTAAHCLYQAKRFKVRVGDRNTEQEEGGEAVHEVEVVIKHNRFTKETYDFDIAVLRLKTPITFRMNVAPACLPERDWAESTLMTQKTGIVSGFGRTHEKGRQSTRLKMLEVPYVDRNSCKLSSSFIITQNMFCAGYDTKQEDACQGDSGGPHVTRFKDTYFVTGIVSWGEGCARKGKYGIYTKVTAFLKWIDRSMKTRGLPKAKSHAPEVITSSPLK
readout_type: IC50

Input line: Dear colleague, I am looking for the recorded IC50 of the following compound: "CC(C)C[C@H](C=O)NC(=O)[C@@H](NS(=O)(=O)c1ccc(F)cc1)C(C)C"
Output line: > 60 µM

---

test: The compound was tested for toxicity using human neuroblastoma SY5Y cells
Format: cell-based
condition_parameters: read-out: LD50 (the source's name)
readout_type: CC50
// unit must come after the numeric part

Input line: Quick one: CC50 for "CC(C)C[C@H](C=O)NC(=O)[C@@H](NS(=O)(=O)c1ccc2ccccc2c1)C(C)C" ?
Output line: 9.8 µM

---

test: The compound was tested for toxicity using human neuroblastoma SY5Y cells
Assay type: cell-based
readout_type: CC50

Input line: // lookup CC50 for "CC(C)C[C@H](C=O)NC(=O)[C@@H](NS(=O)(=O)c1ccc(F)cc1)C(C)C"
Output line: > 1000 µM

---

tested_system: Cytochrome P450 2C9 (Homo sapiens, UniProt P11712)
Sequence (P11712 whole entry): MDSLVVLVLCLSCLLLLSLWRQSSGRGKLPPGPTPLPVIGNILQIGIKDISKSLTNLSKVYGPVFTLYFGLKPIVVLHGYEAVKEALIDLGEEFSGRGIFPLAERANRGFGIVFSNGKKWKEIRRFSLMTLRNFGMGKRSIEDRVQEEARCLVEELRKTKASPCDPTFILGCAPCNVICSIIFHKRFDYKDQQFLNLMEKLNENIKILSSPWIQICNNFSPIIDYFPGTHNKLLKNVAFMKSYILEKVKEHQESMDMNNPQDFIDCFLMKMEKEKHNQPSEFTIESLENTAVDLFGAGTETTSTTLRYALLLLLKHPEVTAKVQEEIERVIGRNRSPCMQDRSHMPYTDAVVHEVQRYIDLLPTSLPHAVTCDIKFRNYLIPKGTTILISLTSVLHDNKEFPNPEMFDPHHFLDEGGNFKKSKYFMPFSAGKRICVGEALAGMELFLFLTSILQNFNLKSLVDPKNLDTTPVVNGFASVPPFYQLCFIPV
readout_type: pIC50
Scale: negative log10 of molar concentration, which is what pIC50 denotes.

Input line: pIC50 for "CC(C)C[C@H](C=O)NC(=O)[C@@H](NS(=O)(=O)c1ccc(F)cc1)C(C)C" ?
Output line: 3.31
